// pIC50 lookup, one value per entry
# System: MYB
# test_summary: HiBiT protein abundance assay, MYB
# Type: cell-based, human
# measurement_context: Homo sapiens, K562, 24 h, Table 13B, modified K562 cells
pIC50: −log10 of the molar value.

COc1nc(-c2ccc(N3CCC(NC4CC4)C3)nn2)ccc1-n1cccn1 (centres unmarked) | < 5.00
COc1nc(-c2ccc(N3CCC(NC(C)(C)C)C3)nn2)ccc1-n1cccn1 (centres unmarked) | 5.00 to 6.00
COc1nc(-c2ccc(N(C)[C@H]3CCN[C@@H](C)C3)nn2)ccc1-n1cccn1 | 5.00 to 6.00
CN(c1ccc(-c2ccc(-c3cn[nH]c3)c(F)n2)nn1)[C@@H]1C[C@H]2CC[C@@H](C1)N2 | > 7.00
COc1cc(-c2ccc(N(C)[C@@H]3C[C@H]4CC[C@@H](C3)N4)nn2)ccc1-c1cn[nH]c1 | 5.00 to 6.00
COc1nc(-c2ccc(N(C)[C@@H]3C[C@H]4CC[C@@H](C3)N4)nn2)cc(F)c1-c1cn[nH]c1 | > 7.00

So what's the measured pIC50 for this one? "CN(c1ccc(-c2ccc(-c3cn[nH]c3)c(OC(F)F)n2)nn1)[C@@H]1C[C@H]2CC[C@@H](C1)N2"
> 7.00

What value of measured pIC50 is listed for "COc1nc(-c2ccc(N(C)C3CC(C)(C)NC(C)(C)C3)nc2)ccc1-c1cn[nH]c1" ?
6.00 to 7.00

* * *

# Tested on: MYB
# test_summary: Splicing RT-qPCR assay, MYB mRNA canonical junction (CJ) and alternative junction (AJ)
# Format: cell-based, human
# measurement_context: Homo sapiens, 24 h, decrease in CJ mRNA; A673 or K562 cells, 24 hours treatment, RT-qPCR; read-out: MYB CJ IC50
pIC50: −log10 of the molar value.
Here, each record is paired with measured pIC50 data.

Example entries begin here.
CN(c1ccc(-c2ccc(-n3cccn3)c3nn[nH]c23)nn1)[C@@H]1C[C@H]2CC[C@@H](C1)N2 | 6.00 to 7.00
CN(C)[C@H]1[C@@H]2CN(c3ccc(-c4ccc(-c5cn[nH]c5)c5ncsc45)nn3)C[C@@H]21 | < 5.00
COc1cc(-c2ccc(-c3ccc(N(C)C4CC(C)(C)NC(C)(C)C4)nn3)c3ncsc23)cnn1 | 6.00 to 7.00
CN(c1ccc(-c2ccc(-n3cccn3)c3[nH]ncc23)nn1)[C@@H]1C[C@H]2CC[C@@H](C1)N2 | 6.00 to 7.00
[2H]C([2H])([2H])N(c1ccc(-c2ccc(-c3cn[nH]c3)c3ncsc23)nn1)C1CCNCC1 | 5.00 to 6.00
CN(C)C1CCN(c2ncc(-c3ccc(-c4cn[nH]c4)c4ncsc34)nn2)C1 (stereo not shown) | 6.00 to 7.00

Next, consider the following molecule.
Give the measured pIC50 of "CN(c1ccc(-c2ccc(-c3cnc(=O)[nH]c3)c3scnc23)nn1)C1CC(C)(C)NC(C)(C)C1" .
6.00 to 7.00

* * *

# test_summary: Transwell assay for membrane efflux and permeability
# Format: in vitro ADME, Canine
# measurement_context: dog; MDCK-BCRP or MDCKII-MDR1 transwell, test compound 1 μM, 2 hours at 37° C.
Each record here notes measured Papp at 2 h, 1 μM.

Cc1ncc(-c2ccc(-c3cnc(N(C)[C@@H]4C[C@H]5CCC[C@@H](C4)N5)nn3)c3scnc23)s1 | < 2 ×10⁻⁶ cm/s

# query: Papp at 2 h, 1 μM of entry COc1nc(-c2ccc(N3CCC(NC(C)(C)C)C3)nn2)ccc1-c1cn[nH]c1 (stereo not drawn)
2 to 6 ×10⁻⁶ cm/s

Could you tell me which Papp at 2 h, 1 μM is on file for "c1cnn(-c2ccc(-c3cnc(N[C@@H]4C[C@H]5CC[C@@H](C4)N5)nn3)c3cn[nH]c23)c1" ?
2 to 6 ×10⁻⁶ cm/s

* * *

# System: Target C
# test_summary: HiBiT protein abundance assay, Target C
# Assay type: cell-based, human
# measurement_context: Homo sapiens, K562, 24 h, Table 13A, modified K562 cells
pIC50: −log10 of the molar value.
Each record here notes measured pIC50.

Example entries begin here.
C[C@@H]1C[C@H](N(C)c2ccc(-c3ccc(-n4cccn4)c4nn[nH]c34)nn2)CCN1 | 5.00 to 6.00
c1nc2c(-c3cn[nH]c3)ccc(-c3ccc(N4CCC5(CCNCC5)C4)nn3)c2s1 | < 5.00
CCN(c1ccc(-c2ccc(-c3cn[nH]c3)c3ncsc23)nn1)[C@@H]1C[C@H]2CCC[C@@H](C1)N2 | > 7.00
CN(c1ccc(-c2ccc(-c3cn[nH]c3)c3cn[nH]c23)nn1)[C@@H]1C[C@H]2CC[C@@H](C1)N2 | 6.00 to 7.00
Cc1ncc(-c2ccc(-c3ccc(O[C@@H]4C[C@H]5CC[C@@H](C4)N5)nn3)c3scnc23)s1 | 6.00 to 7.00

Fill in: pIC50 of "[2H]C([2H])([2H])N(c1ccc(-c2ccc(-c3cn[nH]c3)c3cn[nH]c23)nn1)C1CCNCC1" is ___
5.00 to 6.00

So what does the record say about pIC50 for "c1nc2c(-c3cn[nH]c3)ccc(-c3ccc(N[C@@H]4C[C@H]5CCC[C@@H](C4)N5)nn3)c2s1" ?
> 7.00

* * *

# Tested on: HTT
# test_summary: Splicing RT-qPCR assay, HTT mRNA canonical junction (CJ) and alternative junction (AJ)
# Assay type: cell-based, human
# measurement_context: Homo sapiens, RT-qPCR panel, canonical junction mRNA; compound concentration having 50% response in CJ decrease; read-out: HTT IC50 (decrease in CJ mRNA levels)
Listed molecules paired with reported IC50

CN(C)[C@H]1[C@@H]2CN(c3ccc(-c4ccc(-c5cn[nH]c5)c5cn[nH]c45)nn3)C[C@@H]21 [Compound 303] | > 10 µM
CN(c1ccc(-c2cc(F)c(-c3cn[nH]c3)c3cn[nH]c23)nn1)[C@@H]1C[C@H]2CC(F)(F)[C@@H](C1)N2 (stereo in doubt) [Compound 378] | < 0.1 µM
CN1CCC12CCN(c1ccc(-c3ccc(-c4cn[nH]c4)c4ncsc34)nn1)C2 (stereo not drawn) [Compound 287] | > 10 µM
CN(c1ccc(-c2ccc(-c3cnn(C)c(=O)c3)c3scnc23)nn1)C1CC(C)(C)NC(C)(C)C1 [Compound 211] | 0.1 to 1 µM
CC(C)(C)NC1CCN(c2ccc(-c3ccc(-n4cccn4)c4cn[nH]c34)nn2)C1 (stereo not drawn) [Compound 310] | 1 to 10 µM
CN1C[C@@H]2[C@H](C1)[C@H]2N(C)c1ccc(-c2ccc(-c3cn[nH]c3)c3cn[nH]c23)nn1 [Compound 302] | > 10 µM

Turning to the following molecule.
Param item = CCN(c1ccc(-c2ccc(-c3cn[nH]c3)c3cn[nH]c23)nn1)[C@@H]1C[C@H]2CC[C@@H](C1)N2 [Compound 300] ; retrieve measured IC50.
0.1 to 1 µM

* * *

# Tested on: Target C
# test_summary: HiBiT protein abundance assay, Target C
# Assay type: cell-based, human
# measurement_context: Homo sapiens, Table 13B, modified K562 cells, 24 hours
# Experimental: • Promega Nano-Glo HiBiT Lytic Detection System (cat #N3030) • Coming 384-well TC-treated microplates (cat #3570) • Synthego Engineered Cells Knock-In Clones Cells were maintained in IMIDM with 10% FBS. […] To determine compound effects on protein abundance of each target in Table 12, the percent response for each respective cell line was calculated at each compound concentration as follows: […]
pIC50: −log10 of the molar value.
parameter_measured: pIC50

What value of pIC50 on Target C does COc1nc(-c2ccc(N(C)[C@@H]3C[C@H]4CC[C@@H](C3)N4)nn2)ccc1-n1cccn1 [Compound 907] have?
5.00 to 6.00

* * *

Each entry below carries its recorded pIC50.
# Tested on: HTT
# test_summary: Splicing RT-qPCR assay, HTT mRNA canonical junction (CJ) and alternative junction (AJ)
# Assay type: cell-based, human
# measurement_context: Homo sapiens, RT-qPCR panel, canonical junction mRNA; compound concentration having 50% response in CJ decrease; read-out: HTT IC50 (decrease in CJ mRNA levels)
pIC50: −log10 of the molar value.

Solved cases below.
Cn1cc(-c2c(F)cc(-c3ccc(OC4CC(C)(C)NC(C)(C)C4)nn3)c3[nH]ncc23)cn1 | 6.00 to 7.00
c1cnn(-c2ccc(-c3cnc(N[C@@H]4C[C@H]5CC[C@@H](C4)N5)nn3)c3cn[nH]c23)c1 | > 7.00

Returns the measured pIC50 for the input molecule. Input: "c1n[nH]cc1-c1ccc(-c2ccc(N3CCC4(CCNC4)CC3)nn2)c2[nH]ncc12"
< 5.00

Give the measured pIC50 of "Cc1nc(-c2ccc(-c3cnc(N(C)[C@@H]4C[C@H]5CCC[C@@H](C4)N5)nn3)c3scnc23)cs1" .
6.00 to 7.00

Any idea what its pIC50 is? The molecule is c1nc2c(-c3cn[nH]c3)ccc(-c3cnc(N4CCN5CCCCC5C4)nn3)c2s1 (stereo not shown)
6.00 to 7.00

# pIC50 lookup, item "[2H]C([2H])([2H])N(c1ccc(-c2ccc(-c3cn[nH]c3)c3cn[nH]c23)nn1)C1CCNCC1"
< 5.00

I am curious: what pIC50 value has been reported for "CN(c1ccc(-c2ccc(-c3cn[nH]c3)c3ncsc23)nn1)[C@H]1[C@@H]2CNC[C@@H]21" ?
< 5.00
